tested on: RPMI-8226 leukemia; assay: NCI tumour cell line growth inhibition, 48 h
Quantity Name: TGI

Sample answers from the record:
For the molecule shown here, Nc1nc(=Nc2ccccc2)ss1 , give the reported TGI.
> 100 µM

If you can, please state the reported TGI value of O=c1ccnc(SCc2ccc(Cl)cc2)[nH]1 .
> 100 µM

Please look up its TGI: COCN1C(=O)[C@@H]2CCCN2C(=O)c2ccc([N+](=O)[O-])cc21
> 100 µM

Record request: TGI value, item COc1ccc(-n2sc3ncc([N+](=O)[O-])cc3c2=O)cc1
> 100 µM

Which TGI is listed for CCOP(=O)(OCC)C(F)(F)Cc1cnc(C)c2c1COC(C)(C)O2 ?
> 10 µM

Entry under review: C=C(CN(C)C)C(=O)c1ccc(Oc2ccccc2)cc1 . Reported TGI?
> 21.8 µM

Quick check: TGI of Nc1nc(-c2cccs2)cs1 ?
> 100 µM

Given the molecule N#CCc1nc(-c2cc3c(ccc4ccccc43)oc2=O)cs1 , what is its reported TGI?
> 100 µM

***
Consider the molecule O=C(O)[C@@H](NS(=O)(=O)c1ccc([N+](=O)[O-])cc1)c1ccccc1 and give its measured TGI.
> 100 µM

Every entry's value here was drawn from PubChem BioAssay (NCI).
